Source of measurements: ChEMBL document CHEMBL4229410

# System Under Test: 3-phosphoinositide-dependent protein kinase 1 (Homo sapiens, UniProt O15530)
# Sequence (O15530 whole entry): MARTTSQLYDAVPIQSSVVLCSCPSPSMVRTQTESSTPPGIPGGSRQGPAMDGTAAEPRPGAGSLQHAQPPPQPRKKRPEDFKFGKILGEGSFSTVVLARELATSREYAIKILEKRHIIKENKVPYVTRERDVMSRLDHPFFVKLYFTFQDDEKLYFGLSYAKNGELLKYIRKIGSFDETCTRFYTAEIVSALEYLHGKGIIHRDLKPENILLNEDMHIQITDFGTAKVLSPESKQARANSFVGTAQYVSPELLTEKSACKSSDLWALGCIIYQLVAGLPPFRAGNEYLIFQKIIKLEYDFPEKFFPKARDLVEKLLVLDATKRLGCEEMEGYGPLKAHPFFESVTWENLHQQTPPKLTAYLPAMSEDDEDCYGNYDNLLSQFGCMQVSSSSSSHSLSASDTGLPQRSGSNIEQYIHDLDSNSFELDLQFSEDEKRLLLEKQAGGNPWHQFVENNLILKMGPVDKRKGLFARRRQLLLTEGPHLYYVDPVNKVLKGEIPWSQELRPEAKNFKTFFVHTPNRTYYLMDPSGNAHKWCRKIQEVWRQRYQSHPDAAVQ
pKd: −log10 of the molar value.
Measurement Label: pKd

Quick one: pKd for `CC(C)CN(C(=O)c1cccnc1)c1c2ccccc2c(=O)n2c1[nH]c1ccccc12` ?
≤ 5.30
